Assay: PK analysis of LB-102 in healthy human subjects, single and multiple ascending doses (Example 2)
Format: in vivo
Details: both sexes, human, plasma, oral, 75 mg, 75 mg every 12 hours, D7, mean (SD); read-out: Cmax D7
Property name: Cmax (ng/mL)

* CCN1CCCC1CNC(=O)c1cc(S(=O)(=O)CC)c(NC)cc1OC (stereo not shown) | 309

###

Assay: PK analysis of LB-102 in healthy human subjects, single and multiple ascending doses (Example 2)
Format: in vivo
Conditions: both sexes, human, plasma, oral, 100 mg, single administration 100 mg, mean (SD); read-out: T1/2 (converted)
Property name: half-life

* CCN1CCCC1CNC(=O)c1cc(S(=O)(=O)CC)c(NC)cc1OC (stereo not shown) | 14.1 h

###

Assay: PK analysis of LB-102 in healthy human subjects, single and multiple ascending doses (Example 2)
Format: in vivo
Settings: both sexes, human, plasma, oral, 50 mg, 50 mg every 12 hours, D1, mean (SD); read-out: Cmax D1
Property name: Cmax (ng/mL)

- CCN1CCCC1CNC(=O)c1cc(S(=O)(=O)CC)c(NC)cc1OC (stereo not shown): 126

###

Test: PK analysis of LB-102 in healthy human subjects, single and multiple ascending doses (Example 2)
Assay type: in vivo
Conditions: both sexes, human, plasma, oral, 50 mg, single administration 50 mg, mean; read-out: Cmax
Property name: Cmax (ng/mL)

- CCN1CCCC1CNC(=O)c1cc(S(=O)(=O)CC)c(NC)cc1OC (stereo not shown): 176

###

Assay: PK analysis of LB-102 in healthy human subjects, single and multiple ascending doses (Example 2)
Format: in vivo
Details: both sexes, human, plasma, oral, 50 mg, 50 mg every 12 hours, D1, mean (SD); read-out: T1/2 D1 (converted)
Property name: half-life (h)

- CCN1CCCC1CNC(=O)c1cc(S(=O)(=O)CC)c(NC)cc1OC (stereo not shown): 4.2

###

Assay: PK analysis of LB-102 in healthy human subjects, single and multiple ascending doses (Example 2)
Assay type: in vivo
Conditions: both sexes, human, plasma, oral, 100 mg, single administration 100 mg, mean; read-out: Cmax
Property name: Cmax (ng/mL)

• CCN1CCCC1CNC(=O)c1cc(S(=O)(=O)CC)c(NC)cc1OC (stereo not shown) [LB-102] = 348

###

Assay: PK analysis of LB-102 in healthy human subjects, single and multiple ascending doses (Example 2)
Format: in vivo
Conditions: both sexes, human, plasma, oral, 10 mg, single administration 10 mg, mean; read-out: Cmax
Property name: Cmax (ng/mL)

• CCN1CCCC1CNC(=O)c1cc(S(=O)(=O)CC)c(NC)cc1OC (stereo not shown) = 24.1

###

Assay: PK analysis of LB-102 in healthy human subjects, single and multiple ascending doses (Example 2)
Assay type: in vivo
Settings: both sexes, human, plasma, oral, 50 mg, 50 mg every 12 hours, D7, mean (SD); read-out: Cmax D7
Property name: Cmax

• CCN1CCCC1CNC(=O)c1cc(S(=O)(=O)CC)c(NC)cc1OC (stereo not shown) [LB-102] = 224 ng/mL

###

Test: PK analysis of LB-102 in healthy human subjects, single and multiple ascending doses (Example 2)
Assay type: in vivo
Settings: both sexes, human, plasma, oral, 150 mg, single administration 150 mg; read-out: Tmax
Property name: Tmax (h)

* CCN1CCCC1CNC(=O)c1cc(S(=O)(=O)CC)c(NC)cc1OC (stereo not shown) | 3

###

Test: PK analysis of LB-102 in healthy human subjects, single and multiple ascending doses (Example 2)
Assay type: in vivo
Details: both sexes, human, plasma, oral, 10 mg, single administration 10 mg; read-out: Tmax
Property name: Tmax (h)

• CCN1CCCC1CNC(=O)c1cc(S(=O)(=O)CC)c(NC)cc1OC (stereo not shown) [LB-102] = 3

###

Assay: PK analysis of LB-102 in healthy human subjects, single and multiple ascending doses (Example 2)
Format: in vivo
Details: both sexes, human, plasma, oral, 50 mg, 50 mg every 12 hours, D1; read-out: Tmax D1
Property name: Tmax (h)

* CCN1CCCC1CNC(=O)c1cc(S(=O)(=O)CC)c(NC)cc1OC (stereo not shown) | 2.5

###

Assay: PK analysis of LB-102 in healthy human subjects, single and multiple ascending doses (Example 2)
Assay type: in vivo
Conditions: both sexes, human, plasma, oral, 200 mg, single administration 200 mg, mean; read-out: Cmax
Method: Healthy females and males between 18 and 55 years of age with BMI≥18 and ≤30 kg/m2 were enrolled in the study. Exclusion criteria included: history or presence of psychiatric disorder, drug or alcohol abuse, history of QT prolongation or dysrhythmia, fasting blood glucose level of 126 mg/dL, or a known allergy to the drug or its metabolites. The study was planned as a two part study. Part A was comprised of 5 single ascending dose groups, each of 8 subjects. […]
Property name: Cmax

• CCN1CCCC1CNC(=O)c1cc(S(=O)(=O)CC)c(NC)cc1OC (stereo not shown) [LB-102] = 976 ng/mL

###

Assay: PK analysis of LB-102 in healthy human subjects, single and multiple ascending doses (Example 2)
Type: in vivo
Settings: both sexes, human, plasma, oral, 150 mg, single administration 150 mg, mean (SD); read-out: T1/2 (converted)
Property name: half-life (h)

- CCN1CCCC1CNC(=O)c1cc(S(=O)(=O)CC)c(NC)cc1OC (stereo not shown): 12
